# tested on: FL huCD4 N2A (Homo sapiens, UniProt P01730, N2A)
# test: CADA down-modulation of cellular huCD4
# Format: cell-based
# test context: read-out: Cellular huCD4 IC50 (μM) Mean, HEK293T, CADA 48h
measurement label: IC50 (µM)
The response must be a number in µM with no trailing unit.

Record summary for C=C1CN(S(=O)(=O)c2ccc(C)cc2)CCCN(Cc2ccccc2)CCCN(S(=O)(=O)c2ccc(C)cc2)C1 [CADA, Cyclotriazadisulfonamide] : reported IC50 = 0.73

* * *

# tested on: huCD4_1–32-YFP H9A (Homo sapiens, UniProt P01730, H9A)
# test: CADA inhibition of huCD4_1–32-YFP secretion
# Format: cell-based
# test context: read-out: Secreted YFP IC50 (μM) Mean, HEK293T, CADA 48h
measurement label: IC50

Looking up C=C1CN(S(=O)(=O)c2ccc(C)cc2)CCCN(Cc2ccccc2)CCCN(S(=O)(=O)c2ccc(C)cc2)C1 [CADA, Cyclotriazadisulfonamide] , I found its IC50 recorded as 2.13 µM
